# measurement protocol: NCI Yeast Anticancer Drug Screen. Data for the rad14 strain (AID 159);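 also: 0% = growth of vehicle-treated control cultures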
# reported conditions: S. cerevisiae rad14 strain growth inhibition; at 1.2 µM; active compounds read high
The panel holds about 79,000 compounds, 15% with a hit somewhere; the sample as a whole holds those more often.
Measured growth inhibition by item
observable: growth inhibition (%)

compound: CC1(C)CC(=O)C(C(CC(c2ccccc2)c2cc3c(cc2O)OCO3)C2=C(O)CC(C)(C)CC2=O)=C(O)C1 (centres undefined)
observable: growth inhibition
observed value: -1
--
compound: O=C1c2ccc(O)cc2C(=O)c2c(O)ccc(O)c21
observable: growth inhibition
observed value: 10
--
compound: Cc1cccc(N2CCN(C(=O)/C(=C/c3ccccc3)NC(=O)c3ccccc3)CC2)c1
observable: growth inhibition
observed value: -4
--
compound: O=C1C(C(O)(C(F)(F)F)C(F)(F)F)CCC1C(O)(C(F)(F)F)C(F)(F)F (centres undefined)
observable: growth inhibition
observed value: 4
--
compound: Cc1nc2ccccc2c(=O)n1NC(=O)c1ccc(CS)cc1
observable: growth inhibition
observed value: -21
--
compound: Cc1ccc(Nc2n[nH]c(=S)s2)cc1C
observable: growth inhibition
observed value: -33
--
compound: Cc1cnc(/C=N\NC(N)=S)c2cccc(N)c12
observable: growth inhibition
observed value: -92
--
compound: COc1ccc(/C=C2\CCc3ccccc3C2=O)cc1OC
observable: growth inhibition
observed value: -16
--
compound: CCCCCCCCCC/C=C\CC(=O)O
observable: growth inhibition
observed value: 0
--
compound: CCCCCCCCCCCCCCCCOCC(Cl)COP(=O)(O)OP(=O)(O)OCC1OC(n2cnc3c(N)ncnc32)C(O)C1O (centres undefined)
observable: growth inhibition
observed value: 10
--
compound: Cc1ccc2oc(-c3cccc(N)c3)nc2c1
observable: growth inhibition
observed value: 1
--
compound: CCOC(=O)/C(O)=C(/C=N/C(=S)Nc1c(CC)cccc1CC)C(=O)OCC
observable: growth inhibition
observed value: -7
--
compound: Cc1nc2ccc(Br)cc2c(=O)n1-c1ccc(NC2OCC(O)C(O)C2O)cc1 (centres undefined)
observable: growth inhibition
observed value: 4
--
compound: COc1ccc(/C=C2\S/C(=N/Nc3nc(-c4ccccc4)cs3)NC2=O)cc1OC
observable: growth inhibition
observed value: 20
--
compound: O=C1c2ccccc2C(=O)C1C(c1ccc(F)cc1)C1C(=O)c2ccccc2C1=O
observable: growth inhibition
observed value: -20
--
compound: O=C(Nn1c(-c2ccccc2)nc2ccccc2c1=O)c1ccc(Cl)cc1
observable: growth inhibition
observed value: -11
--
compound: O=C(CCC(=O)c1ccc(O)cc1)Oc1ccc(O)cc1
observable: growth inhibition
observed value: -1
--
compound: O=[N+]([O-])C(=C(NCc1ccccc1)NCc1ccccc1)C(Cl)=C(Cl)Cl
observable: growth inhibition
observed value: -4
--
compound: Cn1c(COc2ccc(/C=N/NC(=O)CCC(=O)N/N=C/c3ccc(OCc4c[n+]5ccccc5n4C)cc3)cc2)c[n+]2ccccc12
observable: growth inhibition
observed value: 0
--
compound: N=C(N)c1ccc(N=Nc2c(O)ccc3c2[nH]c2ccccc23)cc1
observable: growth inhibition
observed value: -1
--
compound: COc1ccc2c(Cc3c4ccccc4cc4ccccc34)cncc2c1O
observable: growth inhibition
observed value: 6
--
compound: CCOc1ccccc1N1C(=O)CC(Sc2ccccc2N)C1=O (centres undefined)
observable: growth inhibition
observed value: -23
--
compound: Nc1cccc2cc(Cl)cnc12
observable: growth inhibition
observed value: -36
--
compound: CC(=O)O/N=C/c1c2ccccc2cc2ccccc12
observable: growth inhibition
observed value: -2
--
compound: c1ccc(N/N=C2\CC(c3ccccc3)Oc3ccccc32)cc1 (centres undefined)
observable: growth inhibition
observed value: 0
--
compound: Cc1ccccc1C1=C(CC(=O)O)c2ccccc2CC1C (centres undefined)
observable: growth inhibition
observed value: 6
--
compound: CCCCCCCCCCCCOC1C(COCCN2CCCC2)OC2OC(C)(C)OC21 (centres undefined)
observable: growth inhibition
observed value: 11
--
compound: OC(c1ccc(Br)cc1)(c1cccs1)C1CC1 (centres undefined)
observable: growth inhibition
observed value: 5
--
compound: CCOC(=O)C1=C(C)NC(C)=C(C(=O)OCC)C1c1ccc(Cl)cc1
observable: growth inhibition
observed value: -14
--
compound: O=C(CCCN1CCC2(CC1)OC(=O)N(c1ccccc1)C2=O)c1ccccc1
observable: growth inhibition
observed value: 53
--
compound: O=C1OC(c2ccc(Cl)cc2)Sc2ccccc21 (centres undefined)
observable: growth inhibition
observed value: 7
--
compound: O=[N+]([O-])c1ccc2nnnn2c1
observable: growth inhibition
observed value: -1
--
compound: BrC/C=C/C[P+](c1ccccc1)(c1ccccc1)c1ccccc1
observable: growth inhibition
observed value: 5
--
compound: CC1C=CN(N(C)C)C2=C1C(=O)c1cnccc1C2=O (centres undefined)
observable: growth inhibition
observed value: -70
--
compound: O=CC(=C(I)I)c1ccccc1
observable: growth inhibition
observed value: 20
--
compound: COc1ccc2cc(CN3CCC(C4CCN(Cc5ccc6cc(OC)ccc6c5)CC4)CC3)ccc2c1
observable: growth inhibition
observed value: -19
--
compound: CCCCOc1ccc(Nc2c3ccccc3nc3ccccc23)cc1
observable: growth inhibition
observed value: -77
--
compound: COc1cc(C(C)C(C(=O)O)C(=O)C(=O)O)cc(OC)c1OC (centres undefined)
observable: growth inhibition
observed value: -1
--
compound: S=c1[nH]nc(Cc2ccccc2)c(=S)[nH]1
observable: growth inhibition
observed value: -3
--
compound: CC[C@@]1(OC(=O)CN(C)C)C(=O)OCc2c1cc1n(c2=O)Cc2cc3ccccc3nc2-1
observable: growth inhibition
observed value: 2
--
compound: Cc1cc(NC(=S)SCc2ccc(Cl)cc2)ccc1Cl
observable: growth inhibition
observed value: -4
--
compound: CCCCCC(=O)C(C)(c1nc2n(c1O)/C(=N/C(=O)Nc1ccc(Cl)cc1)N=N2)c1nc2n(c1O)/C(=N/C(=O)Nc1ccc(Cl)cc1)N=N2
observable: growth inhibition
observed value: -1
--
compound: Cc1cccc[c]1[Sn]([Cl])([S]/C(C#N)=N/N=C/c1ccc(N(C)C)cc1)[c]1ccccc1C
observable: growth inhibition
observed value: -1
--
compound: CC1=NN(C(=O)CC(=O)N(C(=O)c2ccccc2)c2ccc(Cl)cc2)C(=O)C1N=Nc1ccc([N+](=O)[O-])cc1 (centres undefined)
observable: growth inhibition
observed value: -1

Values were extracted from PubChem BioAssay (NCI).
